Each entry below carries its reported pIC50.
- Experimental System: human CaMKIIδ (Homo sapiens)
- Construct: Full-length, glutathione-S-transferase(GST)-tagged, human CaMKIIδ was purchased from Carna Biosciences; purchased Carna Biosciences (CaMKIIδ); Wako Pure Chemical Industries (calmodulin) 02-111
- Experiment Summary: Evaluation of in vitro CaMKII inhibitory activity (binding assay, TR-FRET)
- Assay Setup: human CaMKIIδ, TR-FRET binding assay; class symbols A/B/C; read-out: Act (CaMKII inhibitory activity, binding assay)
pIC50: −log10 of the molar value.
Measured Quantity: pIC50

INSERT INTO results (given_smiles, result) VALUES
  ('C[C@@H](Cn1cnnn1)Oc1cc(-c2ccc3ncc(-c4cccc(OCCCC(=O)O)c4C#N)n3n2)ccc1F', '> 8.00'),
  ('COCCCNC(=O)Cn1cc(-c2cnc3ccc(-c4ccc(F)c(O[C@@H](C)Cn5cnnn5)c4)nn23)c(C#N)n1', '< 7.00'),
  ('C=Cc1ccccc1-c1cnc2ccc(-c3ccc(F)c(O[C@@H](C)Cn4cnnn4)c3)nn12', '> 8.00'),
  ('C[C@@H](Cn1cnnn1)Oc1cc(-c2ccc3ncc(-c4cccc[n+]4[O-])n3n2)ccc1F', '7.00 to 8.00'),
  ('CNC(=O)c1cccc(-n2cnc3ccc(-c4ccc(F)c(O[C@@H](C)Cn5cnnn5)c4)nc32)c1', '> 8.00'),
  ('C[C@@H](Cn1cnnn1)Oc1cc(-c2ccn3ncc(-c4cccc(F)c4)c3n2)ccc1F', '> 8.00'),
  ('C[C@@H](Cn1cnnn1)Oc1cc(-c2ccc3ncc(-c4cn(CC(=O)NCCN5CCOCC5)nc4C#N)n3n2)ccc1F', '< 7.00');

====

- Experimental System: human CaMKIIδ (Homo sapiens)
- Construct: Full-length, glutathione-S-transferase(GST)-tagged, human CaMKIIδ was purchased from Carna Biosciences; purchased Carna Biosciences (CaMKIIδ); Wako Pure Chemical Industries (calmodulin) 02-111
- Experiment Summary: Evaluation of in vitro CaMKII inhibitory activity (binding assay, TR-FRET)
- Assay Setup: human CaMKIIδ, TR-FRET binding assay; class symbols A/B/C; read-out: Act (CaMKII inhibitory activity, binding assay)
pIC50: −log10 of the molar value.
Each entry below carries its reported pIC50.
Measured Quantity: pIC50

INSERT INTO results (molecule, result) VALUES
  ('COCCOCCOCCOc1cccc(-c2cnc3ccc(-c4ccc(F)c(O[C@@H](C)Cn5cnnn5)c4)nn23)c1C#N', '> 8.00'),
  ('COc1ccnc(-c2cnc3ccc(-c4ccc(F)c(N[C@@H](C)Cn5cnnn5)c4)nn23)c1C#N', '> 8.00'),
  ('C[C@@H](Cn1cnnn1)Oc1cc(-c2ccn3ncc(-c4cnn(CCN5CCOCC5)c4)c3n2)ccc1F', '7.00 to 8.00'),
  ('C[C@@H](Cn1cnnn1)Oc1cccc(-c2ccn3ncc(-c4cccc(C(=O)NC5CCN(C)C5)c4)c3n2)c1 (stereo partly shown)', '> 8.00'),
  ('C[C@@H](Cn1cnnn1)Oc1cccc(-c2ccn3ncc(-c4cccc(C(=O)NCCn5ccnc5)c4)c3n2)c1', '> 8.00'),
  ('C[C@@H](Cn1cnnn1)Oc1cc(-c2ccn3ncc(-c4ccc[nH]c4=O)c3n2)ccc1F', '> 8.00'),
  ('C[C@@H](Cc1nnn[nH]1)Oc1cccc(-c2ccn3ncc(-c4cccs4)c3n2)c1', '7.00 to 8.00');
